- System: CSNK1E
- condition: concentration: 1 μM,replicates: in singlicate; n = 1;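 also: KINOMEscan kinase panel screen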

compound	%Inh [%]
OCCn1cc(-c2cnc3nnn(Cc4ccc5ncccc5c4)c3n2)cn1	0
CC(=O)Nc1nc2cnc(Nc3cc(NC(=O)c4cccc(CC(C)(C)C#N)c4)ccc3C)nc2s1	0
Cc1n[nH]c2cc(Nc3ccnc(Nc4cccc(CN5CCOCC5)c4)n3)ccc12	19
Cn1ccc2ncnc(Oc3ccc(NC(=O)Nc4cccc(C(F)(F)F)c4)c(Cl)c3)c21	0
COC(=O)Nc1nc2cc(Oc3ccc(NC(=O)Nc4cc(C(F)(F)F)ccc4Cl)cc3)ccc2[nH]1.Cl	39
COC(=O)c1cccc(NC(=O)NC2CCN(c3ccnc(NCc4ccc(F)cc4)n3)CC2)c1	37
Cc1nnc(-c2ccc3occ(-c4ccc(S(C)=O)cc4)c3n2)o1 (centres unmarked)	0
Cc1cccc(-c2nc(Nc3ccncc3)c3sccc3n2)n1	94.9

----------
- System: KIT
- condition: concentration: 1 μM,replicates: in singlicate; n = 1

compound	unit-label	%Inh
COc1cccc(C2=C(Nc3cccc(Cl)c3)C(=O)NC2=O)c1 [SB-341556]	%	14
CC(C(=O)NC1CCN(c2ccnc(Nc3ccc(F)cc3)n2)C1)c1ccc(Cl)cc1 (centres unmarked) [GSK1379713]	%	10
COC(=O)c1cccc(NC(=O)NC2CCN(c3ccnc(NCc4ccc(F)cc4)n3)CC2)c1 [GSK1379860]	%	7
N#Cc1cccc(C(=O)NC2CCN(c3ccnc(Nc4ccc(F)cc4)n3)C2)c1 (centres unmarked) [GSK1379708]	%	9
O=C(NCC1CC1)c1ccc(-c2cc(C(=O)NC3CC3)ccc2F)cc1 [GW810445]	%	0
O=C(Nc1ccc(Oc2ccc3nc(NC(=O)C4CC4)cn3n2)c(F)c1)c1cccn(-c2ccccc2)c1=O	%	100
Cl.Nc1n[nH]c2cc(-c3ccccn3)ccc12 [GSK2189892]	%	4
COC(=O)Nc1nc2cc(Oc3ccc(NC(=O)Nc4cc(C(F)(F)F)ccc4Cl)cc3)ccc2[nH]1.Cl [GW697465]	%	100

----------
- Tested on: TNK2
- condition: concentration: 1 μM,replicates: in singlicate; n = 1

molecule	target-of-assay	unit-label	%Inh
Cc1nnc(-c2ccc3occ(-c4ccc(S(C)=O)cc4)c3n2)o1 (stereo not shown)	TNK2	%	0
O=C(Nc1ccc(Oc2ccc3nc(NC(=O)C4CC4)cn3n2)c(F)c1)c1cccn(-c2ccccc2)c1=O	TNK2	%	0
CN1CCN(CCNc2nc3cc(Oc4ccc(NC(=O)Nc5cc(C(F)(F)F)ccc5F)cc4)ccc3[nH]2)CC1.Cl.Cl [GW768504]	TNK2	%	0
CCOC(=O)N1CCC(n2cnc(-c3ccc(F)cc3)c2-c2ccnc(N)n2)CC1 [SB-219952]	TNK2	%	12
CCn1c(-c2nonc2N)nc2cncc(Br)c21 [SB-738004]	TNK2	%	0
CCn1c(-c2nonc2N)nc2cncc(CNC3CCNCC3)c21.Cl [SB-747651]	TNK2	%	8
C[C@@H](Oc1cc(-n2cnc3cc(-c4ccncc4)ccc32)sc1C(N)=O)c1ccccc1Cl [GSK479719]	TNK2	%	37
CS(=O)(=O)c1cccc(CNc2nc(Nc3ccc4c(c3)[C@@H]3C[C@@H]4CNC3=O)ncc2C(F)(F)F)c1	TNK2	%	56
Cc1cccc2c(-c3ccncc3)c(-c3ccc(F)cc3)nn12.Cl [GW461487]	TNK2	%	9
COc1cc2ncn(-c3cc(OCC4CCCCC4)c(C(N)=O)s3)c2cc1OC [GSK204559]	TNK2	%	4
N#Cc1cccc(C(=O)NC2CCN(c3ccnc(Nc4ccc(F)cc4)n3)C2)c1 (stereo not shown) [GSK1379708]	TNK2	%	4
CCNCC(Cc1ccccc1)NC(=O)c1cc(Br)c(-c2ccnc3[nH]ccc23)s1.Cl.Cl (stereo not shown) [GSK1383280]	TNK2	%	10
COc1cc2nccc(Nc3ccc(Oc4ccccc4)cc3)c2cc1OC.Cl [GI261656]	TNK2	%	47
CC(=O)Nc1nc2cnc(Nc3cc(NC(=O)c4cccc(CC(C)(C)C#N)c4)ccc3C)nc2s1	TNK2	%	0
CNC(=O)c1ccccc1Nc1nc(Nc2cccc(CS(C)(=O)=O)c2)ncc1C.O=CO [GSK1520489]	TNK2	%	98.9
NC(=O)c1ccc(-c2cc3ncnc(SCC(=O)O)c3s2)cc1	TNK2	%	0
